Value source: ChEMBL document CHEMBL1154695

Test: Terminal half life in Sprague-Dawley rat at 10 mg/kg, po
Assay type: ADME, organism-based
Design: dose 10 mg/kg, route oral
Details: in vivo, read-out: beta t1/2 (converted)
metric: half-life (h)
API: value field is a number in h; no unit string.

Which half-life is reported for this compound? "[2H][C@@](CCC)(NC(=O)[C@@H]1[C@H]2CCC[C@H]2CN1C(=O)[C@@H](NC(=O)[C@@H](NC(=O)c1cnccn1)C1CCCCC1)C(C)(C)C)C(=O)C(=O)NC1CC1"
1.5

====

Experiment: Inhibition of HCV NS3/4A protease
Design: species or system Hepacivirus hominis
Measured Ki, listed per entry for reference.

In [3]: df
Out[3]:
                            chemical_string  reading
0  [2H][C@@](CCC)(NC(=O)[C@@H]1[C@H]2CCC[C@H]2CN1C(=O)[C@@H](NC(=O)[C@@H](NC(=O)c1cnccn1)C1CCCCC1)C(C)(C)C)C(=O)C(=O)NC1CC1    20 nM

Alright, here's another compound for you.
Which Ki is reported for this compound? "CCC[C@@H](NC(=O)[C@@H]1[C@H]2CCC[C@H]2CN1C(=O)[C@@H](NC(=O)[C@@H](NC(=O)c1cnccn1)C1CCCCC1)C(C)(C)C)C(=O)C(=O)NC1CC1"
> 1000 nM
